Sourced from patent US20160214996A1

Target: ALK L1196M (Homo sapiens, UniProt Q9UM73, L1196M)
Construct: purchased Carna Biosciences (Japan)
Sequence (Q9UM73 19-1620 L1196M): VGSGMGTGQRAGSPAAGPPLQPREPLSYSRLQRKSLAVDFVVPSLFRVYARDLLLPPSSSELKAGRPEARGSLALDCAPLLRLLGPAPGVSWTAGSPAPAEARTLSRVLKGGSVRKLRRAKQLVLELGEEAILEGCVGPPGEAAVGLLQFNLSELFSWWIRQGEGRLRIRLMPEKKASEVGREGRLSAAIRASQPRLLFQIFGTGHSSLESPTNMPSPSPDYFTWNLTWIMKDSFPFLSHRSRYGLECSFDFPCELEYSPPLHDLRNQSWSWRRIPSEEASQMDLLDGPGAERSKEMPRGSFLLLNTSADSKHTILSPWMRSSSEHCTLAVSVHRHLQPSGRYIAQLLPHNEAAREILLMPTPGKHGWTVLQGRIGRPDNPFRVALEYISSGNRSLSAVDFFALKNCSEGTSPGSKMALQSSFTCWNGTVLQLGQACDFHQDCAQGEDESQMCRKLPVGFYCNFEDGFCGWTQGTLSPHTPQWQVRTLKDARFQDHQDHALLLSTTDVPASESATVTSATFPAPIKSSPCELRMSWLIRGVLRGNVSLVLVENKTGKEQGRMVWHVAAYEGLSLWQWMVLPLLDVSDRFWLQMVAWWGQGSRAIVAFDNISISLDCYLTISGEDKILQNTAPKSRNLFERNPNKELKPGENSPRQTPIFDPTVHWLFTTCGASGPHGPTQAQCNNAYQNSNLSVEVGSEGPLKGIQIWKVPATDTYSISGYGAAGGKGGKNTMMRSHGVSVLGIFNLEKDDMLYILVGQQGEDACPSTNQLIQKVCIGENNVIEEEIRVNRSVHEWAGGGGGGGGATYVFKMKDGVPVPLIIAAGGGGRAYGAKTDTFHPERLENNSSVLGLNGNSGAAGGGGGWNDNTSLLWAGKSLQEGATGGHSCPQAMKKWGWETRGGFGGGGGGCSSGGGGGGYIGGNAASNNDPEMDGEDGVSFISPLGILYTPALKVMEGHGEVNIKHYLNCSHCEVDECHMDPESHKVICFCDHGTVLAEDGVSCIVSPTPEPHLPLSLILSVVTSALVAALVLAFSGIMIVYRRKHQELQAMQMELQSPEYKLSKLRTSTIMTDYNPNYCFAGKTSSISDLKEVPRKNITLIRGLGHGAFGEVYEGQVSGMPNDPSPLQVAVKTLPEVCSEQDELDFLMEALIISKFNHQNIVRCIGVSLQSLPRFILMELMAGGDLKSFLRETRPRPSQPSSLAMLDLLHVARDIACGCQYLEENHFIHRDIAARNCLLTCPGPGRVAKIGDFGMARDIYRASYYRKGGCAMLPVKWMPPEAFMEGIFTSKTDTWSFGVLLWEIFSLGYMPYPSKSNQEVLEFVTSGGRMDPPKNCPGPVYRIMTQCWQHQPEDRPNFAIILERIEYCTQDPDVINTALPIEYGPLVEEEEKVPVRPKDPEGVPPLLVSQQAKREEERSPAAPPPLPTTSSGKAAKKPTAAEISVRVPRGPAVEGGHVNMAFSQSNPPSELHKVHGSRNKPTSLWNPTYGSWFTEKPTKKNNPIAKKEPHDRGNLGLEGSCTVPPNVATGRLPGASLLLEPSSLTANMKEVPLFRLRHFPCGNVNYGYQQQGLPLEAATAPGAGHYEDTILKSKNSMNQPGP
Assay: ALK L1196M standard HTRF enzyme assay
Assay type: biochemical
Settings: 0.15 nM ALK L1196M, 30 μM ATP, 60 minutes at room temperature, read-out: IC50 (nM) ALK_L1196M
Description: Wild type ALK and L1196M mutant ALK enzyme inhibition by the compounds of formula (I) was measured using an HTRF assay. ALK wild type and ALK L1196M were acquired from Carna Biosciences (Japan). […] Plates were read on an Envision multi-label plate reader (Perkin Elmer). […] The detection reagents ([…]) were added at final concentrations of 2 nM antibody and 62.5 nM XL665. The plates were incubated at room temperature for 60 minutes and then read in the Envision plate reader. […]
measuredQuantity: IC50 (nM)
Answers are plain numbers, in nM.

q: Reported IC50, compound CC1Oc2cc(cnc2N)-c2c(nn(C)c2C#N)N(C)C(=O)COc2ccc(F)cc21 (single isomer, unassigned) : ____
a: 529

* * *

Target: ALK wild type (Homo sapiens, UniProt Q9UM73)
Construct: purchased Carna Biosciences (Japan)
Sequence (Q9UM73 19-1620): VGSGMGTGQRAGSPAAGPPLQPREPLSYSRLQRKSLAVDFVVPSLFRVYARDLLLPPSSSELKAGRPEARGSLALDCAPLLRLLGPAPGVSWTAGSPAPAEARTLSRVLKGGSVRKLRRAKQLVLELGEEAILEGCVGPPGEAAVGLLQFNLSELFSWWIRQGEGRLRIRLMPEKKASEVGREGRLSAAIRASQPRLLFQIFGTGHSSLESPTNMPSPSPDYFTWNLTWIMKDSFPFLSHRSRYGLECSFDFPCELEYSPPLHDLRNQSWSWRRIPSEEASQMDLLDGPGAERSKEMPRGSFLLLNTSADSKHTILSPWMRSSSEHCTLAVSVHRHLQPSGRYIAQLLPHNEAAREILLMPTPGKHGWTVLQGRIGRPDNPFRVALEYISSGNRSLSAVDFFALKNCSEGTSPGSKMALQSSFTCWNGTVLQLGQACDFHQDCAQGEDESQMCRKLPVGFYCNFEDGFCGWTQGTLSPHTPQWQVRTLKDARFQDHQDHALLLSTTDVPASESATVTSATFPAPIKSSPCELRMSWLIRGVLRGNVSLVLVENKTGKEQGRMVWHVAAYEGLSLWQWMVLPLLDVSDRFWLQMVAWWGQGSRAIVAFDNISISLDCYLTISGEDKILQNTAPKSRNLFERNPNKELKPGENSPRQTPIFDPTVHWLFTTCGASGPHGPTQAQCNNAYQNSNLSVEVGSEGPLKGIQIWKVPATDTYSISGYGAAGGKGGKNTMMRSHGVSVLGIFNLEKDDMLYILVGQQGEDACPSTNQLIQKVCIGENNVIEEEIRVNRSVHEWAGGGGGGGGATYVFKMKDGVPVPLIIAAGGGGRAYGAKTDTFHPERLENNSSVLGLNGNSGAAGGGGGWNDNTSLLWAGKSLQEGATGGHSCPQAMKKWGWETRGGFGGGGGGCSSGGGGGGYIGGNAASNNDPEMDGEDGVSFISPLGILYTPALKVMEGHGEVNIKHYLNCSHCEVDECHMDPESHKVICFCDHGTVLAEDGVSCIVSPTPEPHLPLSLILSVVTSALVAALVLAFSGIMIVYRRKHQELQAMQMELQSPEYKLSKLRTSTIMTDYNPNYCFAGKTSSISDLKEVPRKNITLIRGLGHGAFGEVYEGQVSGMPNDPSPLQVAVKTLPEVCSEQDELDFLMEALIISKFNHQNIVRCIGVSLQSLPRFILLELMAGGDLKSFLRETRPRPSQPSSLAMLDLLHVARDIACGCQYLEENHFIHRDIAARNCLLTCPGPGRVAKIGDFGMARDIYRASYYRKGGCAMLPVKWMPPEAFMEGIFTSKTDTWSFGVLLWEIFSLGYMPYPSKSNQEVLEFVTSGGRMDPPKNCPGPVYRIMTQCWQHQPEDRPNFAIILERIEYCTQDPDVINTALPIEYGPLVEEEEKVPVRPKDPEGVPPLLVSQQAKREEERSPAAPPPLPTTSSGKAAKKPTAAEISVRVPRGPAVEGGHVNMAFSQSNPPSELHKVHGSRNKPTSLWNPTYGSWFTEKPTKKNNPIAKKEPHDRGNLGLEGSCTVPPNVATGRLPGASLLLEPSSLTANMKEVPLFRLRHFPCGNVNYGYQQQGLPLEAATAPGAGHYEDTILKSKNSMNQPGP
Experiment: ALK wild type standard HTRF enzyme assay
Type: biochemical
Settings: 0.5 nM ALK wild type, 30 μM ATP, 90 minutes at room temperature, read-out: IC50 (nM) ALK_wt
Give IC50 for every item shown.
Give bare numbers, in nM.

// solved cases for IC50 follow
| compound | systemName | readoutValue |
| --- | --- | --- |
| CC1Oc2cc(cnc2N)-c2c(nn(C)c2C#N)NC(=O)COc2ccc(F)cc21 (stereo not drawn) | ALK wild type (Homo sapiens, UniProt Q9UM73) | 2370 |
| CC1Oc2cc(cnc2N)-c2c(nn(C)c2C#N)N(C)C(=O)COc2ccc(F)cc21 (single isomer, unassigned) [Compound 16] | ALK wild type (Homo sapiens, UniProt Q9UM73) | 34.8 |

q: Reported IC50, compound CC1Oc2cc(cnc2N)-c2c(nn(C)c2C#N)N(C)C(=O)COc2ccc(F)cc21 (single isomer, unassigned) [Compound 17] : ____
a: 7430
